Target: T1, human LAP-TGFB1 Fc fusion (human)
T1 construct: also called human LAP-TGFβ1-Fc; human LAP-TGFβ-Fc isoform 1
T1 sequence (chain, as listed by the source limits assumed): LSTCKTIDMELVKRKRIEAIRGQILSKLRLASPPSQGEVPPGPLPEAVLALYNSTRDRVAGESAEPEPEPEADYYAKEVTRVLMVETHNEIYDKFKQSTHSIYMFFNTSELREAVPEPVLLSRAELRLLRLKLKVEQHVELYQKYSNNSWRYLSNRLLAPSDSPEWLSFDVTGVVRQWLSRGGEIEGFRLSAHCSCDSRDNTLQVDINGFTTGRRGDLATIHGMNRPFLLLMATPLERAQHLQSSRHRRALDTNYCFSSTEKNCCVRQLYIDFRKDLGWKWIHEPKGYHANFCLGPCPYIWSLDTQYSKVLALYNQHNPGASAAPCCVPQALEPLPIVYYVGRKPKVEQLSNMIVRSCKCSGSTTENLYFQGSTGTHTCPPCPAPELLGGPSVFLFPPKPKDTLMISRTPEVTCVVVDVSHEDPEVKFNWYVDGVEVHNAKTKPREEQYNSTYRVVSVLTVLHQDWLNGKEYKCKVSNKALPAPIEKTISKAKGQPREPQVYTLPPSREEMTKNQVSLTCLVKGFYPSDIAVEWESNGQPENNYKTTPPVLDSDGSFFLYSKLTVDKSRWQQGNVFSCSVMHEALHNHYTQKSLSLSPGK
Assay: SPR, antigen-Fc captured, Fab analyte
readout_name: Fold improvement in KD (fold)
Lab book: enter the figure in fold, no units written.

Please review the following examples before continuing.
binder	observed_value
64BJN (Fab, V domains shown, also called VH S31T I58S / VL T30Y R53H (64BJN)) VH: EVQLVQSGAEVKKPGASVKVSCKASGYTFTTYWMHWVRQAPGQGLEWMGRIDPQSGGSKYAQKFQGRATLTVDTSTSTAYMELSRLRSDDTAVYYCARWDYGGYFDVWGQGTLVTVSS VL: DIQMTQSPSSLSASVGDRVTITCRASQDIYNYLNWYQQKPGKAVKLLIYYTSHLHSGVPSRFSGSGSGTDYTLTISSLQPEDFATYFCQQGDTLPWTFGQGTKLEIKR	37
79BJN (Fab, V domains shown, also called VH W33D S55D S57D I58V / VL T30Y R53G T93E (79BJN)) VH: EVQLVQSGAEVKKPGASVKVSCKASGYTFTSYDMHWVRQAPGQGLEWMGRIDPQDGDVKYAQKFQGRATLTVDTSTSTAYMELSRLRSDDTAVYYCARWDYGGYFDVWGQGTLVTVSS VL: DIQMTQSPSSLSASVGDRVTITCRASQDIYNYLNWYQQKPGKAVKLLIYYTSGLHSGVPSRFSGSGSGTDYTLTISSLQPEDFATYFCQQGDELPWTFGQGTKLEIKR	3630

Exercise: // lookup Fold improvement in KD for 82BJN (Fab, V domains shown, also called VH W33Y H35N I58V D100H Y104Q / VL T30Y R53G (82BJN)) VH: EVQLVQSGAEVKKPGASVKVSCKASGYTFTSYYMNWVRQAPGQGLEWMGRIDPQSGGVKYAQKFQGRATLTVDTSTSTAYMELSRLRSDDTAVYYCARWHYGGQFDVWGQGTLVTVSS VL: DIQMTQSPSSLSASVGDRVTITCRASQDIYNYLNWYQQKPGKAVKLLIYYTSGLHSGVPSRFSGSGSGTDYTLTISSLQPEDFATYFCQQGDTLPWTFGQGTKLEIKR
Key: 8610

Exercise: Now consider 69BJN (Fab, V domains shown, also called VH W33D I58T / VL T30Y R53V (69BJN)) VH: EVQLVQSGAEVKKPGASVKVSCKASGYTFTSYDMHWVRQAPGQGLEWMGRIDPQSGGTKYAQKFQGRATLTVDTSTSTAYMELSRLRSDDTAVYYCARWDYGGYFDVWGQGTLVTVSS VL: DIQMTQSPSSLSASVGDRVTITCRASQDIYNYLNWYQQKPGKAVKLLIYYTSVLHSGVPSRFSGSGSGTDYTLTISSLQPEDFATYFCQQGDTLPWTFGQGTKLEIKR and answer again.
Key: 695

Exercise: Now consider 66BJN (Fab, V domains shown, also called VH W33D S55T Y101H / VL T30Y L94Q (66BJN)) VH: EVQLVQSGAEVKKPGASVKVSCKASGYTFTSYDMHWVRQAPGQGLEWMGRIDPQTGGIKYAQKFQGRATLTVDTSTSTAYMELSRLRSDDTAVYYCARWDHGGYFDVWGQGTLVTVSS VL: DIQMTQSPSSLSASVGDRVTITCRASQDIYNYLNWYQQKPGKAVKLLIYYTSRLHSGVPSRFSGSGSGTDYTLTISSLQPEDFATYFCQQGDTQPWTFGQGTKLEIKR and answer again.
Key: 13

Exercise: Now consider 57BJN (Fab, V domains shown, also called VH W33D / VL (57BJN)) VH: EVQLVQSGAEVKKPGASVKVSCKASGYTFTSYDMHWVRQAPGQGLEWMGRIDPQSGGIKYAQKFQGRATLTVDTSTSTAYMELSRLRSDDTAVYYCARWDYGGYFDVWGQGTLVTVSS VL: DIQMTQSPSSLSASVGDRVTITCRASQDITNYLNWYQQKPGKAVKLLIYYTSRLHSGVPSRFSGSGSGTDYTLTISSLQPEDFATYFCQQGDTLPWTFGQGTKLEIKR and answer again.
Key: 6

Exercise: Now consider 78BJN (Fab, V domains shown, also called VH W33D K59R / VL T30Y R53N T93E (78BJN)) VH: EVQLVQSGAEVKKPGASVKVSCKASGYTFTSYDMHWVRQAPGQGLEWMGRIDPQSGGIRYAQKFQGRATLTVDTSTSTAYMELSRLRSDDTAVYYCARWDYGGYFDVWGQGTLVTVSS VL: DIQMTQSPSSLSASVGDRVTITCRASQDIYNYLNWYQQKPGKAVKLLIYYTSNLHSGVPSRFSGSGSGTDYTLTISSLQPEDFATYFCQQGDELPWTFGQGTKLEIKR and answer again.
Key: 1120

Exercise: Now consider 80BJN (Fab, V domains shown, also called VH W33D K59R Y104Q / VL T30Y R53I (80BJN)) VH: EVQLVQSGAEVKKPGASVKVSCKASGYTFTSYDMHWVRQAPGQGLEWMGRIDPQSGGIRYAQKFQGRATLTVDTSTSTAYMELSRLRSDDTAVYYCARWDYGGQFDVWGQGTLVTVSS VL: DIQMTQSPSSLSASVGDRVTITCRASQDIYNYLNWYQQKPGKAVKLLIYYTSILHSGVPSRFSGSGSGTDYTLTISSLQPEDFATYFCQQGDTLPWTFGQGTKLEIKR and answer again.
Key: 13200

Exercise: Now consider 62BJN (Fab, V domains shown, also called VH W33D Q54Y S55G W99Y Y101H / VL T30Y (62BJN)) VH: EVQLVQSGAEVKKPGASVKVSCKASGYTFTSYDMHWVRQAPGQGLEWMGRIDPYGGGIKYAQKFQGRATLTVDTSTSTAYMELSRLRSDDTAVYYCARYDHGGYFDVWGQGTLVTVSS VL: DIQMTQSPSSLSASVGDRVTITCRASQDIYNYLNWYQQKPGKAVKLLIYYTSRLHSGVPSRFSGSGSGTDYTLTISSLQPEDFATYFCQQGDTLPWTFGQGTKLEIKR and answer again.
Key: 5

Exercise: Now consider 59BJN (Fab, V domains shown, also called VH W33Q M34V / VL T30Y (59BJN)) VH: EVQLVQSGAEVKKPGASVKVSCKASGYTFTSYQVHWVRQAPGQGLEWMGRIDPQSGGIKYAQKFQGRATLTVDTSTSTAYMELSRLRSDDTAVYYCARWDYGGYFDVWGQGTLVTVSS VL: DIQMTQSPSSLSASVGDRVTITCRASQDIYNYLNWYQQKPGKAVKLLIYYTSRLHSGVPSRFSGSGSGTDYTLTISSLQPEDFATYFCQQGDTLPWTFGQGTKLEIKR and answer again.
Key: 7
